- Tested on: RXF 393 renal
- run.description: NCI-60 one-dose screen, 48 h
- condition.details: 10 µM unless noted
About 83,000 compounds went through this panel and 20% of them were active in at least one assay; those are over-represented in the sample as a whole. Calls of active or inactive are those of the source. How the source made its calls: active means growth percent below 10; inactive means the rest.
The categories you may choose from are YES (active), NO (inactive)

Below, 5 compounds whose answers are already recorded.
>  <compound>
Cn1cc(-c2noc(-c3cn(C)c4ncc(Br)cc34)n2)c2cc(Cl)ccc21

>  <assigned.category>
NO

$$$$
>  <compound>
NNC(=O)c1ccc(C(=O)NN)cc1

>  <assigned.category>
NO

$$$$
>  <compound>
CC(C)C1=NOC(=O)C1=Cc1cn(-c2ccccc2)nc1-c1cccc([N+](=O)[O-])c1

>  <assigned.category>
NO

$$$$
>  <compound>
CCCCCCCCCCCCCCNC(=O)Nc1ccc(Cl)c(Cl)c1

>  <assigned.category>
NO

$$$$
>  <compound>
CC[C@@](C)(NC(=O)[C@H](C)NC(=O)CCNC(=O)C(C)(C)NC(=O)[C@H](C)NC(=O)[C@@H]1CCCN1C(=O)[C@@](C)(CC)NC(=O)[C@H](Cc1ccccc1)NC(=O)C1CCCN1C(=O)C(C)(C)NC(=O)C1CCCN1C(=O)C(C)(C)NC(C)=O)C(=O)NCCC(=O)N[C@@H](CC(C)C)C(=O)NC(C)(C)C(=O)NCCC(=O)N[C@@H](CC(C)C)C(=O)NC(C)(C)C(=O)NC(C)(C)C(=O)N[C@@H](CC(C)C)C(=O)NCCC(=O)NCO (some centres not stated)

>  <assigned.category>
YES

$$$$

Q: Assay outcome for COc1ccc(-c2cc(-c3ccccc3)nc(SCCCCCC(=O)NO)n2)cc1 : what was it?
Ans: NO

Q: Recorded test call requested for Cc1ncc(C(=O)Nc2ccc(CN3CCN(C)CC3)c(C(F)(F)F)c2)cc1C#Cc1c(N)ncc2ccc(C#N)cc12
Ans: YES

Q: What did this assay record as the result for O=C1COCCN1c1ccc(NCc2cn(Cc3cccc4ccccc34)c3ccccc23)cc1 ?
Ans: NO

Q: Which outcome was assigned to COc1cc(-c2cc(-c3ccc(Nc4ncnc5cc(Cl)ccc45)cc3)nc(N3CCCCC3)n2)cc(OC)c1OC in this test?
Ans: NO

====

- Test system: UACC-257 melanoma
- run.description: NCI-60 one-dose screen, 48 h
- condition.details: 10 µM unless noted
This is part of a sample that, as a whole, favours compounds with a hit. Of some 83,000 tested, about 20% had one in any assay. Calls of active or inactive are those of the source. How the source made its calls: active means growth percent below 10; inactive means the rest.
Mark one answer only. Choices: TRUE for active, FALSE for inactive

Answered examples (10):
>  <compound>
O=C(Nc1cc(-c2cccnc2)nc(NCCCN2CCOCC2)n1)c1cc(Br)cc(C(F)(F)F)c1

>  <assigned.category>
TRUE

$$$$
>  <compound>
C=CCCCCOc1ccccc1-c1cnc(OCCCCC=C)n1C

>  <assigned.category>
FALSE

$$$$
>  <compound>
C=C(CC(=O)OC)C(C)=O

>  <assigned.category>
FALSE

$$$$
>  <compound>
C=CCCCCCCCCC(=O)OC(C)C

>  <assigned.category>
FALSE

$$$$
>  <compound>
CCOC(=O)c1ccc2nc(-c3c(C)nn(-c4ccccc4)c3N3CCOCC3)[nH]c2c1

>  <assigned.category>
FALSE

$$$$
>  <compound>
CCN(CC)CC(C)Nc1ccc(C)c2sc3ccccc3c(=O)c12 (stereo unspecified)

>  <assigned.category>
TRUE

$$$$
>  <compound>
C=C(C)[C@@H]1CC[C@]2(C(N)=O)CC[C@]3(C)[C@H](CC[C@@H]4[C@@]5(C)CC[C@H](O)C(C)(C)[C@@H]5CC[C@]43C)[C@@H]12

>  <assigned.category>
TRUE

$$$$
>  <compound>
O=C(N/N=C1\c2ccccc2-c2cccc(C(=O)O)c21)c1ccc(O)cc1

>  <assigned.category>
FALSE

$$$$
>  <compound>
CC(=O)OC[C@]12CC[C@@H]([C@@H](C)C(N)=O)[C@@H]1[C@H]1CC[C@@H]3[C@@]4(C)CC[C@H](OC(C)=O)C(C)(C)[C@@H]4CC[C@@]3(C)[C@]1(C)CC2

>  <assigned.category>
TRUE

$$$$
>  <compound>
O=C(Nc1cccnc1)c1ccc2ccc3ccc(C(=O)Nc4cccnc4)nc3c2n1

>  <assigned.category>
FALSE

$$$$

Q: Recorded test outcome, item CCN(CC)c1ccc2cc(C(Nc3ccc(Cl)cc3)c3nnnn3C(C)(C)C)c(=O)oc2c1 (stereo unspecified)
Ans: FALSE

Q: Identify the outcome logged in this assay for the compound shown: O=C(CCCCCCSc1nc(-c2ccc(Cl)cc2)cc(-c2ccc(Cl)cc2)n1)NO
Ans: FALSE

Q: Tell me the assay call for O=C1CC(c2ccc3c(c2)OCO3)Nc2ccccc21 (stereo unspecified) please.
Ans: FALSE

Q: Short answer needed: outcome of this test for O=C(NCCCNC(=O)OCc1ccc2c(Br)cc(Br)c(O)c2n1)OCc1ccc2c(Br)cc(Br)c(O)c2n1 ?
Ans: TRUE

Q: Outcome? Cn1cc(-c2noc(C(=O)c3cn(C)c4ncc(Br)cc34)n2)c2ccccc21
Ans: FALSE

Q: // param item: COCCCNc1nc(NC(=O)c2cc(Br)cc(C(F)(F)F)c2)cc(-c2cccnc2)n1 ; yields the recorded call
Ans: FALSE

Q: Lab log entry: CC(C)(C)c1cc(C(=O)Nc2ccccc2C(=O)NCCN)cc(C(C)(C)C)c1 — outcome as called in the assay?
Ans: FALSE

Q: Which outcome was assigned to c1ccc(-c2nnc(-c3c[nH]c4ncccc34)s2)cc1 in this test?
Ans: FALSE

Q: GET /call?item= O=C(CCNCc1ccccc1)c1ccccc1 returns the recorded outcome of this test.
Ans: FALSE

Q: Could you kindly confirm the outcome this assay logged for CN(C)c1ccc(-c2ccc(-c3ccc(C(=N)N)cc3)s2)cc1 ?
Ans: FALSE

Q: Given C=C(C)[C@@H]1CC[C@]2(C(=O)OC)CC[C@]3(C)[C@H](CC[C@@H]4[C@@](C)(CCc5nn[nH]n5)[C@H](C(=C)C)CC[C@]43C)[C@@H]12 , state the outcome it received in this test.
Ans: TRUE

Q: Record lookup: outcome of this test for C=C(C)[C@@H]1CC[C@]2(C(N)=O)CC[C@]3(C)[C@H](CC[C@@H]4[C@@]5(C)C/C(=C/c6cccnc6)C(=O)C(C)(C)[C@@H]5CC[C@]43C)[C@@H]12 ?
Ans: FALSE

Q: Hello, I am checking results. What call was entered for Cc1cc(C)c(O)c(CNCCCCCCNCc2cc(C)cc(C)c2O)c1 ?
Ans: TRUE

Q: Can you look up the reported call for O=C(N[C@@H]1CCCc2ccccc21)[C@H](CCC(=O)N1CCN(C2CCCCC2)CC1)N1C(=O)[C@@H](N2C(=O)OC[C@@H]2c2ccccc2)[C@H]1/C=C/c1ccccc1 for me?
Ans: FALSE

Q: Recorded test call requested for Cc1cc[n+](CCCCCCCCCC[n+]2ccc(C)cc2)cc1
Ans: FALSE

Q: Tell me the assay call for C=C(C)[C@@H]1CC[C@]2(c3ncc(C)o3)CC[C@]3(C)[C@H](CC[C@@H]4[C@@](C)(CCC#N)[C@H](C(=C)C)CC[C@]43C)[C@@H]12 please.
Ans: TRUE

Q: Could you please tell me the result logged for C=C(C)[C@@H]1CC[C@]2(C)[C@H](C(=O)C=C3[C@@H]4C[C@](C)(C(=O)N5CCN(C)CC5)CC[C@]4(C)CC[C@]32C)[C@@]1(C)CCC#N in this assay?
Ans: TRUE

Q: Given COc1ccc(C(=O)CSc2nccc(Nc3ccc(C(=O)O)cc3)n2)cc1 , state the outcome it received in this test.
Ans: FALSE

Q: Entry O=C1NC(=O)c2cc([N+](=O)[O-])cc3cccc1c23 : call = ?
Ans: FALSE

====

- Tested on: SF-268 CNS
- run.description: NCI-60 one-dose screen, 48 h (100 = growth as untreated, 0 = no growth, -100 = all killed)
- condition.details: 10 µM unless noted
The panel holds about 83,000 compounds, 20% with a hit somewhere; the sample as a whole holds those more often. The source made the active and inactive calls. Rule for the calls: active = growth percent below 10; inactive = the rest.
parameter: growth

Before answering, review these 10 worked examples.
>  <compound.string>
CCN1CCN(CC(=O)Nc2nc3ccc(NCc4ccc(Cl)cc4)cc3s2)CC1

>  <growth>
71% (inactive)

$$$$
>  <compound.string>
COc1ccc(-c2cc(-c3ccc(OC)c(OC)c3)nc(SCCCCCC(=O)NO)n2)cc1

>  <growth>
82.3% (inactive)

$$$$
>  <compound.string>
Cn1cc(-c2nnc(-c3cn(C)c4ncccc34)s2)c2ccccc21

>  <growth>
72.1% (inactive)

$$$$
>  <compound.string>
N=C(N)c1ccc(-c2ccc(-c3ccc(-c4cccs4)s3)s2)cc1F

>  <growth>
98.8% (inactive)

$$$$
>  <compound.string>
O=C1Nc2ccccc2/C1=C/C(=O)c1ccc(N2CCOCC2)cc1

>  <growth>
86.5% (inactive)

$$$$
>  <compound.string>
C=C(C)[C@@H]1CC[C@]2(COCCC#N)CC[C@]3(C)[C@H](CC[C@@H]4[C@@](C)(CCCNCCC#N)[C@H](C(=C)C)CC[C@]43C)[C@@H]12

>  <growth>
53% [100 µM] (inactive)

$$$$
>  <compound.string>
Cc1cc(C)c(O)c(CNCCCNCc2cc(C)cc(C)c2O)c1

>  <growth>
74.7% (inactive)

$$$$
>  <compound.string>
Cn1c(=O)c(C#N)c(-c2ccco2)n2c(S(=O)(=O)Cc3ccccc3)nnc12

>  <growth>
104% (inactive)

$$$$
>  <compound.string>
O=[N+]([O-])c1cc(CCl)ccc1OCCBr

>  <growth>
101% (inactive)

$$$$
>  <compound.string>
O=C1Nc2ccccc2/C1=C/C(=O)c1ccc(N2CCCCC2)cc1

>  <growth>
71.7% (inactive)

$$$$

# c1ccc(-c2n[nH]c(-c3ccccn3)n2)nc1 with SF-268 CNS: growth is 140% (inactive)
